Reference source for all entries: patent US20240272170A1

- target.or.system: FA peptide (Octet assay of PS557 variants)
- experiment.description: Octet (BLI), peptide on sensor, response after 200 s association
endpoint: Octet response (nm)
Output spec: scalar in nm, unitless text.

Examples with their reported Octet response follow.
PS831 (designed binder) MPTAASATESAIEDTPAPARPEVDGRTKPKRQPRYHVVLWNDDDHTYQYVVVMLQSLFGHPRKRGYRLAKEMDTLGRVIVLTTTREHAELKRDQIHAFGYDRLLARSKGSMKASIEAEE ... 0.755
PS801/PS814 (designed binder) MPTAASATESAIEDTPAPARPEVDGRTKPKRQPRYHVVLWNDDDHTYQYVVVMLQSLFGHPPKRGYRLAKEVDTQGRVIVLTTTREHAELKRDQIHAFGYDRLLARSKGSMKASIEAEE ... 0.00662
PS798 (designed binder) MPTAASATESAIEDTPAPARPEVDGRTKPKRQPRYHVVLWNDDDHTYQYVVVMLQSLFGHPPERGYRLAKEMDTLGRVIVLTTTREHAELKRDQIHAFGYDRLLARSKGSMKASIEAEE ... 1.41

Next:
What the record says about PS809 (designed binder) MPTAASATESAIEDTPAPARPEVDGRTKPKRQPRYHVVLWNDDDHTYQYVVVMLQSLFGHPPERGYRLAKEMDTQGRVIVLTTTREHAELKRDQIHAFGYDRLLARSKGSMKASIEAEE : Octet response is 0.0032
